TARGET_UNDER_TEST: Integrin alpha-IIb/beta-3 (Homo sapiens, UniProt P05106+P08514)
Sequence (P05106 27-788 limits assumed): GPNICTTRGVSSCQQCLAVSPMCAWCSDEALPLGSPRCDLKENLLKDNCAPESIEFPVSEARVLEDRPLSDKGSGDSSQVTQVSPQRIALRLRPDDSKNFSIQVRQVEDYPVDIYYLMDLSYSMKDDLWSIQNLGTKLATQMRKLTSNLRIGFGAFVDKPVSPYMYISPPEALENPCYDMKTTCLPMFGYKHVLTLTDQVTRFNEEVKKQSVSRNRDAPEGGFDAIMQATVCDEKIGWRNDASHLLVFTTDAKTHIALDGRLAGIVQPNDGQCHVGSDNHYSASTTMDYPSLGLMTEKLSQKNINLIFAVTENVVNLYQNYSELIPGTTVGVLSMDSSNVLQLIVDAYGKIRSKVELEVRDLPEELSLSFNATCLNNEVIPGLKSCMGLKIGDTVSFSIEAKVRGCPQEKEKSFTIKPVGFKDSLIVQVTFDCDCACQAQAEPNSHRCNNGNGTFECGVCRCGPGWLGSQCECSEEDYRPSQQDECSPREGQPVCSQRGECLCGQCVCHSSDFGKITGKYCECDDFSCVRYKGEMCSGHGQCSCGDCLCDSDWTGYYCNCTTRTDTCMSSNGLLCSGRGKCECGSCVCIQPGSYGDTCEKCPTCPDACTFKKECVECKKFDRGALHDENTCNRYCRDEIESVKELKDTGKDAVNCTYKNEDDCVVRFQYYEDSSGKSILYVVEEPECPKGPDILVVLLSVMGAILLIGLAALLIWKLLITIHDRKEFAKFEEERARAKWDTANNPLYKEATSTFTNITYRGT
Sequence (P08514 32-887 limits assumed): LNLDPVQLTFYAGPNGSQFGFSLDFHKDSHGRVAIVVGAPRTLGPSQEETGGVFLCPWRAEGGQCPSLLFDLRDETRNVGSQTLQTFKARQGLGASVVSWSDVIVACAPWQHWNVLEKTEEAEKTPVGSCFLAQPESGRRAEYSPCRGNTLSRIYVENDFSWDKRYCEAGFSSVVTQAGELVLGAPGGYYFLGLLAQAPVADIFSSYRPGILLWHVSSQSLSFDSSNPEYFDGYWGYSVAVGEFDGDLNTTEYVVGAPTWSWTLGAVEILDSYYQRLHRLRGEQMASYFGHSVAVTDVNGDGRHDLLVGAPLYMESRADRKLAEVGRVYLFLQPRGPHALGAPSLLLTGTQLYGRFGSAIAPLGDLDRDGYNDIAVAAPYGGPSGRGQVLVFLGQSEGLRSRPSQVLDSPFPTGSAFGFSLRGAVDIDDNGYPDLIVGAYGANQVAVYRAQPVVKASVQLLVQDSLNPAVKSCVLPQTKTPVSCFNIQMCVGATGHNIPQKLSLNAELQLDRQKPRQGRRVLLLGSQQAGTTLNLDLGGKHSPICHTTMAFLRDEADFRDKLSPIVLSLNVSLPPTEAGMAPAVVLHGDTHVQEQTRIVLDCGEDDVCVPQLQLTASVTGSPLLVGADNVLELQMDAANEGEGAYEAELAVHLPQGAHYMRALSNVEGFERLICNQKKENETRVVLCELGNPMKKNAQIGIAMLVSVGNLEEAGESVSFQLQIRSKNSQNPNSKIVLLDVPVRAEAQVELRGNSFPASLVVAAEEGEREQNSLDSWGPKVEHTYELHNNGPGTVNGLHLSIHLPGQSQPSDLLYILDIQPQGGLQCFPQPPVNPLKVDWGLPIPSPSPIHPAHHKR
Sequence (P08514 891-1039 limits assumed): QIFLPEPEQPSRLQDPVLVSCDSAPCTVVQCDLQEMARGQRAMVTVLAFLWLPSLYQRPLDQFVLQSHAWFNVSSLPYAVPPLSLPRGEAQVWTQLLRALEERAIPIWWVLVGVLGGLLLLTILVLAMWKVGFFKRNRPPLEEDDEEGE
METHOD_DESCRIPTION: Inhibition of vWF binding to GPIIb/IIIIa receptor
Type: protein-complex assay
OUTCOME_MEASURE: pIC50
Formally, pIC50 is defined as -log10 of the concentration c, with c in mol/L.

Input: Supply measured pIC50 of `NC(N)=NCCC[C@H](N)C(=O)NCC(=O)N[C@@H](CC(=O)O)C(=O)O` in your reply.
Output: 5.40

###

TARGET_UNDER_TEST: Integrin alpha-IIb/beta-3 (Homo sapiens, UniProt P05106+P08514)
METHOD_DESCRIPTION: Inhibition of vWF binding to alphaIIb-beta3 integrin
Type: protein-complex assay
OUTCOME_MEASURE: pIC50
Formally, pIC50 is defined as -log10 of the concentration c, with c in mol/L.

Input: Supply measured pIC50 of `O=C(O)COc1ccc(C(=O)CNC(=O)c2cc3c(s2)CCNC3)cc1OCC(=O)O` in your reply.
Output: 7.55

###

TARGET_UNDER_TEST: Integrin alpha-IIb/beta-3 (Homo sapiens, UniProt P05106+P08514)
METHOD_DESCRIPTION: Biotinylated fibrinogen binding to alpha IIb beta-3 integrin
Type: protein-complex assay
OUTCOME_MEASURE: pIC50
Formally, pIC50 is defined as -log10 of the concentration c, with c in mol/L.

Input: Supply measured pIC50 of `Cc1c(C(=O)NCC(=O)c2ccc(OCC(=O)O)c(OCC(=O)O)c2)sc2c1CNCC2` in your reply.
Output: 7.74

Input: Supply measured pIC50 of `O=C(O)CCc1ccc(C(=O)CNC(=O)c2cc3c(s2)CCNC3)cc1` in your reply.
Output: 7.10
